Cited source: patent US20020019527A1

The entries below come with measured inhibition at 1 µM values attached.
Target: Farnesyltransferase (FTase) (Bos taurus, UniProt P29702+P49355)
Construct: precipitation from a beef brain homogenate; from tissue; host or cells: bovine brain
Experiment: Farnesyltransferase inhibition (scintillation proximity assay, [3H]-FPP / biotin-K-ras peptide)
Assay type: biochemical, bovine
Settings: compound at 10^−6 M; bovine FTase, 37° C., 30 minutes
Where a name gives a salt, the structure may show the parent alone.
Number only, in %; omit the unit.

Examples with their reported inhibition at 1 µM follow.
Compound	Measured value
Cn1cncc1C(OCc1ccc(Cl)cc1Cl)c1ccc(C#N)c(-c2cccc3ccccc23)c1 (stereo not shown) [Example 72, hydrochloride]	100
Cn1cncc1C(OCc1ccc(F)c(C(F)(F)F)c1)c1ccc(C#N)c(-c2ccccc2C(F)(F)F)c1 (stereo not shown) [Example 250, hydrochloride]	99
Cn1cncc1C(NCCc1ccccc1)c1ccc(C#N)c(-c2cccc3ccccc23)c1 (stereo not shown)	100
Cn1cncc1C(SCc1ccc(C#N)cc1)c1ccc(C#N)c(-c2cccc3ccccc23)c1 (stereo not shown) [Example 62, hydrochloride]	100
Cc1ccccc1-c1cc(C(OCc2ccc(F)c(F)c2)c2cncn2C)ccc1C#N (stereo not shown) [Example 147, hydrochloride]	96
Cc1cccc(-c2cc(C(OCc3ccc(C#N)cc3)c3cncn3C)ccc2C#N)c1C (stereo not shown) [Example 278, hydrochloride]	99

# context switch: different compound, same inhibition at 1 µM
Q. Entry Cn1cncc1C(OCc1ccc(C#N)cc1)c1ccc(C#N)c(-c2cccc3ncccc23)c1 (stereo not shown) [Example 43, dihydrochloride] : reported inhibition at 1 µM = ?
A. 100

* * *

Parameter: inhibition at 1 µM. Scope: all listed entries.
Target: Farnesyltransferase (FTase) (Bos taurus, UniProt P29702+P49355)
Construct: precipitation from a beef brain homogenate; from tissue; host or cells: bovine brain
Experiment: Farnesyltransferase inhibition (scintillation proximity assay, [3H]-FPP / biotin-K-ras peptide)
Assay type: biochemical, bovine
Conditions: compound at 10^−6 M; bovine FTase, 37° C., 30 minutes
Description: Farnesyltransferase (FTase) or geranylgeranyltransferase I (GGTase I) fractions were isolated from bovine brains and purified by a series of methods which separate FTase from GGTase I and GGTase I from GGTase II. The methods involved a partial purification of all three enzymes by precipitation from a beef brain homogenate with 30% to 50% saturated […] followed by chromatography on DEAE Sepharose. […]
Structures can show the parent of a compound that is named as a salt.
Note: unit % is implicit; provide only the numeric part.

Compound	inhibition at 1 µM / %
Cc1ccccc1-c1cc(C(OCc2cccc(I)c2)c2cncn2C)ccc1C#N (stereo not shown) [Example 117, hydrochloride]	90
Cn1cncc1C(OCc1ccc(C#N)cn1)c1ccc(C#N)c(-c2cccc3cccnc23)c1 (stereo not shown) [Example 247, trihydrochloride]	95
Cn1cncc1C(OCc1ccc(C#N)c(Br)c1)c1ccc(C#N)c(-c2cccc3ccccc23)c1 (stereo not shown) [Example 75, hydrochloride]	100

Q. # lookup: inhibition at 1 µM of Cc1ccccc1-c1cc(C(OCc2ccc(C(=O)N(C)C)cc2)c2cncn2C)ccc1C#N (stereo not shown)
A. 90

* * *

Target: Farnesyltransferase (FTase) (Bos taurus, UniProt P29702+P49355)
Construct: precipitation from a beef brain homogenate; from tissue; host or cells: bovine brain
Test: Farnesyltransferase inhibition (scintillation proximity assay, [3H]-FPP / biotin-K-ras peptide)
Assay type: biochemical, bovine
Conditions: compound at 10^−6 M; bovine FTase, 37° C., 30 minutes
Where a name gives a salt, the structure may show the parent alone.
Below, each of the compounds is paired with its reported inhibition at 1 µM value.
Quick note: number first, unit second.

Examples with their reported inhibition at 1 µM follow.
Compound	inhibition at 1 µM
Cn1cncc1CNc1ccc(C#N)c(-c2cccc3ccccc23)c1	100%
Cc1cc(C)cc(COC(c2ccc(C#N)c(-c3ccccc3C)c2)c2cncn2C)c1 (stereo not shown) [Example 140, hydrochloride]	94%
Cn1cncc1C(NC1CCN(C(=O)c2ccccc2)CC1)c1ccc(C#N)c(-c2cccc3ccccc23)c1 (stereo not shown) [Example 57, dihydrochloride]	100%

Now examine the next entry.
Q. GET /values?readout=inhibition at 1 µM&item= Cn1cncc1C(OCc1cccc(Cl)c1)c1ccc(C#N)c(-c2cccc3ccccc23)c1 (stereo not shown) [Example 273, hydrochloride]
A. 100%
